biological target: human GCG receptor (human, UniProt P47871 26-477); test: cell-based or functional assay
Sequence (P47871 26-477): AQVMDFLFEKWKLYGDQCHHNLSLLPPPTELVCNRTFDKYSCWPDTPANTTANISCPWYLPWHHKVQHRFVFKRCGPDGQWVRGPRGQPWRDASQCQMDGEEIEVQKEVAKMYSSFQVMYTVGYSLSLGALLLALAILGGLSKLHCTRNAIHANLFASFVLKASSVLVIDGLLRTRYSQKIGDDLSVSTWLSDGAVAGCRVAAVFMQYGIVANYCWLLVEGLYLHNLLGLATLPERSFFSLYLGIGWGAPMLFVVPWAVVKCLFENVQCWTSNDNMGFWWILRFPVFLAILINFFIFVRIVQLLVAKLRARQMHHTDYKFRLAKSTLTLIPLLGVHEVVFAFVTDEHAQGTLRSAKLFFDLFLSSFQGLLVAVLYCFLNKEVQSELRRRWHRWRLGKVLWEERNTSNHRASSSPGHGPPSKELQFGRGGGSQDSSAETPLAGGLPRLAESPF
Bridges are numbered along the chain shown (N, C = ends). Where no end group is shown, it is not given here. [ ]: non-standard residue; d: D form. The star is where a group is joined. Acetyl(2-(4-imidazolyl)) = O=C(Cc1c[nH]cn1)*; Aib = CC(C)(N)C(=O)O
Consider the reported In vitro activity compared with native peptide (%) vs. Glucagon of an entry and match it to a band in low bracket: < 1%; middle bracket: ≥ 1% and < 20%; high bracket: ≥ 20%

[in] Would you mind sorting {Acetyl(2-(4-imidazolyl))}-[Aib]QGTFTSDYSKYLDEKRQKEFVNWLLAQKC (bridge 15-19) [Triple agonist of SEQ ID NO: 93] into the appropriate category?
[out] low bracket

[in] Would you mind sorting {Acetyl(2-(4-imidazolyl))}-[Aib]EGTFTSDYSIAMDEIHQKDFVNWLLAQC (bridge 15-19) [Triple agonist of SEQ ID NO: 83] into the appropriate category?
[out] middle bracket

[in] Would you mind sorting H[Aib]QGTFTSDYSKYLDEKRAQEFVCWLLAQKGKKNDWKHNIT [Triple agonist of SEQ ID NO: 28] into the appropriate category?
[out] middle bracket

[in] Would you mind sorting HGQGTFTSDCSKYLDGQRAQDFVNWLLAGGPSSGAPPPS [Triple agonist of SEQ ID NO: 48] into the appropriate category?
[out] low bracket

[in] Would you mind sorting H[Aib]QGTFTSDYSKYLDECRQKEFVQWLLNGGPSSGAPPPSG (bridge 16-20) [Triple agonist of SEQ ID NO: 37] into the appropriate category?
[out] middle bracket
